Reported GI50 by item:
# Test system: HCT-15 colon
# assay details: NCI tumour cell line growth inhibition, 48 h

Sample answers from the record:
{"columns": ["cpd smiles", "GI50"],
 "data": [
  ["CCC(C)(C)C(=O)O[C@H]1C[C@@H](C)C=C2C=C[C@H](C)[C@H](CC[C@@H]3C[C@@H](O)CC(=O)O3)[C@H]21", "2.15 µM"],
  ["COc1cc2c3c(n(CCCCOC(=O)C(F)(F)F)c(=O)c2cc1OC)-c1cc2c(cc1C3=O)OCO2", "> 100 µM"],
  ["O=[N+]([O-])c1ccc(Br)c([N+](=O)[O-])c1", "1.93 µM"]
]}

GET /value?item= CCC[CH2][Sn]1([CH2]CCC)[O]C(=O)c2cc(I)cc(I)c2[O]1 &field=GI50 returns 1.28 µM

GET /value?item= Oc1ccc2cc(Br)ccc2c1-c1c(O)ccc2cc(Br)ccc12 &field=GI50 returns 3.2 µM
